Below, each entry is listed with its recorded pKd.
Molecular target: SMARCA2^BD (Homo sapiens)
Construct: P51531-2, residues 1373-1493 with additional N-terminal SM residues; GST (TEV site) (N, cleaved yes); made in house; host or cells: Escherichia coli BL21(DE3)
Sequence (P51531 1373-1493 isoform P51531-2): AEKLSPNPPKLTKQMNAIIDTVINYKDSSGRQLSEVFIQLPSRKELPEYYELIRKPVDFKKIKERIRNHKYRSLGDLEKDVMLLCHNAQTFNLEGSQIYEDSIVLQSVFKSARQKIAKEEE
Experiment: SPR binding to immobilised SMARCA2 bromodomain
Settings: SPR, SMARCA2BD; mean ± SD; read-out: SMARCA2 KD
Field pKd (float): negative decimal logarithm of the concentration in molar.

Here is how some compounds turned out for pKd.
{"Mol Smiles": "Cc1ncsc1-c1ccc([C@H](CCCCN2CCC(c3ccc4c(c3)n(C3CCCC3)c3nc(=O)c5c(Br)cccc5n43)CC2)NC(=O)[C@@H]2C[C@@H](O)CN2C(=O)[C@@H](NC(=O)C2(F)CC2)C(C)(C)C)cc1", "pKd": 7.03}
{"Mol Smiles": "Cc1ncsc1-c1ccc(CNC(=O)[C@@H]2C[C@@H](O)CN2C(=O)[C@@H](NC(=O)C2(F)CC2)C(C)(C)C)c(OCCOCCOCCN2CCC(c3ccc4c(c3)n(C3CCCC3)c3nc(=O)c5c(Br)cccc5n43)CC2)c1", "pKd": 6.17}
{"Mol Smiles": "Nc1cccc2c1c(=O)nc1n(C3CCCC3)c3ccccc3n21", "pKd": 5.94}
{"Mol Smiles": "Cc1ncsc1-c1ccc(CNC(=O)[C@@H]2C[C@@H](O)CN2C(=O)[C@@H](NC(=O)C2(F)CC2)C(C)(C)C)c(OCCN2CCC(c3ccc4c(c3)n(C3CCCC3)c3nc(=O)c5c(Br)cccc5n43)CC2)c1", "pKd": 6.98}

Read the next record carefully.
What does the record list as pKd for Cc1ncsc1-c1ccc(CNC(=O)[C@@H]2C[C@@H](O)CN2C(=O)[C@@H](NC(=O)C2(F)CC2)C(C)(C)C)c(OCCOCCOCCOCCN2CCC(c3ccc4c(c3)n(C3CCCC3)c3nc(=O)c5c(Br)cccc5n43)CC2)c1 ? 5.96

====

Below, each entry is listed with its recorded Papp A→B at 1 µM.
Experiment: Bidirectional permeability measurement in Caco-2 cells
Format: in vitro ADME
Conditions: human, Caco-2, pH 7.4, Caco-2; read-out: Caco-2 Pab
The response must be a number in ×10⁻⁶ cm/s with no trailing unit.

{"Molecule": "Cc1ncsc1-c1ccc(C(CCC(C)CCN2CCC(c3ccc4c(c3)n(C3CCCC3)c3nc(=O)c5c(Br)cccc5n43)CC2)NC(=O)C2CC(O)CN2C(=O)C(NC(=O)C2(F)CC2)C(C)(C)C)cc1 (stereo not shown)", "Unit Annotation": "×10⁻⁶ cm/s", "Numeric Result": 2}
{"Molecule": "O=c1nc2n(C3CCCC3)c3ccccc3n2c2cccc(Br)c12", "Unit Annotation": "×10⁻⁶ cm/s", "Numeric Result": 31}
{"Molecule": "Nc1cccc2c1c(=O)nc1n(C3CCCC3)c3ccccc3n21", "Unit Annotation": "×10⁻⁶ cm/s", "Numeric Result": 37}
{"Molecule": "Cc1ncsc1-c1ccc([C@H](CCCCCN2CCC(c3ccc4c(c3)n(C3CCCC3)c3nc(=O)c5c(Br)cccc5n43)CC2)NC(=O)[C@@H]2C[C@@H](O)CN2C(=O)[C@@H](NC(=O)C2(F)CC2)C(C)(C)C)cc1", "Unit Annotation": "×10⁻⁶ cm/s", "Numeric Result": 1.4}
{"Molecule": "Cc1ncsc1-c1ccc([C@H](COC(C)CN2CCC(c3ccc4c(c3)n(C3CCCC3)c3nc(=O)c5c(Br)cccc5n43)CC2)NC(=O)[C@@H]2C[C@@H](O)CN2C(=O)[C@@H](NC(=O)C2(F)CC2)C(C)(C)C)cc1 (stereo partly shown)", "Unit Annotation": "×10⁻⁶ cm/s", "Numeric Result": 6}

What does the record list as Papp A→B at 1 µM for CN1CCC(c2ccc3c(c2)n(C2CCCC2)c2nc(=O)c4c(Br)cccc4n32)CC1 ? 28
